Hello, the source for this data is PubChem BioAssay AID1963868, in case you need it.

tested on: KRAS PDC tumor spheroids (HUVEC+MSC), viability; experiment: Anticancer human tumor 254851-301-R-J1-PDC patient-derived colon carcinoma cell line growth inhibition [KRAS2]; settings: second compound 0.1 µM; first compound 1 µM; active compounds read low;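 also: spheroids exposed to compounds for seven days before readout; 100% = DMSO vehicle control luminescence of the spheroids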
Reported values of viability, T/C for individual entries
Unit % implied. Number only.

Cn1nccc1Nc1nccc(-c2cc3c(s2)C(C)(C)N(CCN2CCOCC2)C3=O)n1 + C=CC(=O)N1CCN(c2nc(=O)n(-c3c(C)ccnc3C(C)C)c3nc(-c4c(O)cccc4F)c(F)cc23)C(C)C1: 96.8
COc1cc(Nc2ncc3c(n2)-c2ccc(Cl)cc2C(c2c(F)cccc2OC)=NC3)ccc1C(=O)O + CNCc1ccccc1-c1csc(C(C)Nc2nc(C)nc3cc(OC)c(OC)cc23)c1: 26.2

So for Cn1nccc1Nc1nccc(-c2cc3c(s2)C(C)(C)N(CCN2CCOCC2)C3=O)n1 + CC1OCC2(CCN(c3cnc(Sc4ccnc(N)c4Cl)c(N)n3)CC2)C1N , the logged viability, T/C turned out to be 86.9
